Tested on: AS120
Assay: qHTS profiling for inhibitors of Plasmodium falciparum proliferation (AID 504749); note: nearly all actives have a fitted effect of over 60% in size
Settings: P. falciparum in erythrocytes, SYBR Green DNA, 72 h; series mostly up to 12.8 µM
Method: NIH National Institute of Allergy and Infectious Diseases [NIAID] NIH Chemical Genomics Center [NCGC] […] Because mature erythrocytes lack DNA, only Plasmodium-derived DNA is detected. NCGC Assay Protocol Summary: The SYBR Green viability assay was adapted from a method described previously (Plouffe et al., 2008). […] The following morning, fluorescence intensity at 485(14) nm excitation and 535(25) nm emission wavelengths was measured on an EnVision (Perkin Elmer) plate reader. […]
Inconclusive results are not listed. Calls of active or inactive are those of the source. Calls come from the whole dose curve; as a rule, active = well fitted inhibition curve with a large enough effect; inconclusive = small, poorly fitted or top-dose-only effect; inactive = flat fitted curve, though single readings scatter.
Classes used: active, inactive

[[record]]
compound = "CN(C)CCCOC1C(C(O)CO)OC2OC(C)(C)O[C@@H]21 (stereo not given in full)"
qualitative_label = "inactive"

[[record]]
compound = "CO[C@]12C(COC(N)=O)C3=C(C(=O)C(C)=C(N)C3=O)N1CC1NC12 (stereo not given in full)"
qualitative_label = "active"

[[record]]
compound = "C[C@@]12CCC(=O)C=C1C=CC1C2CC[C@]2(C)C1CC[C@@]21CCC(=O)O1 (stereo not given in full)"
qualitative_label = "inactive"

[[record]]
compound = "CN[C@H]1[C@@H](O)[C@@H](NC)[C@@H]2O[C@@]3(O)C(=O)C[C@@H](C)O[C@H]3O[C@H]2[C@H]1O"
qualitative_label = "inactive"

[[record]]
compound = "C#C[C@]1(O)CC[C@@H]2[C@H]3CCC4=CCCC[C@@H]4[C@@H]3CC[C@@]21C"
qualitative_label = "inactive"


====

System: W2
Experiment: qHTS profiling for inhibitors of Plasmodium falciparum proliferation (AID 504749); note: nearly all actives have a fitted effect of over 60% in size; note: potency is the fitted concentration of half-maximal effect
Details: P. falciparum in erythrocytes, SYBR Green DNA, 72 h; series mostly up to 12.8 µM
Inconclusive results are not listed. Calls of active or inactive are those of the source. Calls follow the shape of the dose curve; as a rule, active = well fitted inhibition curve with a large enough effect; inconclusive = small, poorly fitted or top-dose-only effect; inactive = flat fitted curve, though single readings scatter. Bridge positions count the residues as written; N and C are the ends. Square brackets hold non-standard residues; d marks the D form. Peptide text beside a SMILES is read from it. * marks the point of attachment. Ileψ(thiazoline)Cys = CC[C@H](C)[C@H](N)C1=N[C@H](C(=O)*)CS1; d(aIle) = CC[C@H](C)[C@@H](N)C(=O)O; dOrn = NCCC[C@@H](N)C(=O)O
ENDPOINT_LABEL: Potency

[[record]]
molecule = "COC1OC(CO)C(OC2OC(C(=O)O)C(OC3OC(COS(=O)(=O)O)C(OC4OC(C(=O)O)C(OC5OC(CO)C(OC6OC(C(=O)O)C(OC7OC(COS(=O)(=O)O)C(OC8OC(C(=O)O)=C[C@H](O)C8OS(=O)(=O)O)C(O)C7NC(C)=O)[C@@H](O)C6O)C(O)C5NC(C)=O)[C@@H](O)C4O)C(O)C3NC(C)=O)[C@@H](O)C2O)C(O)C1NC(C)=O (stereo partly specified)"
experimental_result = "6.75 µM (active)"

[[record]]
molecule = "CCOC(=O)O[C@@H](C)OC(=O)[C@@H]1N2C(=O)[C@@H](NC(=O)[C@@H](N)c3ccccc3)[C@H]2SC1(C)C"
experimental_result = "5.73 µM (active)"

[[record]]
molecule = "CC[C@H](C)[C@H](N)C1=N[C@H](C(=O)N[C@@H](CC(C)C)C(=O)N[C@@H](CCC(=O)O)C(=O)N[C@@H](C(=O)N[C@H]2CCCCNC(=O)[C@@H](CC(N)=O)NC(=O)[C@@H](CC(=O)O)NC(=O)[C@@H](Cc3cnc[nH]3)NC(=O)[C@@H](Cc3ccccc3)NC(=O)[C@@H]([C@@H](C)CC)NC(=O)[C@@H](CCCN)NC2=O)[C@@H](C)CC)CS1 ({Ileψ(thiazoline)Cys}-LE[d(aIle)]K[dOrn][d(aIle)][dF][dH][dD][dN]; lactam 4-C)"
experimental_result = "inactive"

[[record]]
molecule = "Nc1nc2ncc(CNc3ccc(C(=O)NC(CCC(=O)O)C(=O)O)cc3)nc2c(=O)[nH]1 (stereo unspecified)"
experimental_result = "inactive"

[[record]]
molecule = "CCC1OC(=O)CC(O)C(C)[C@@H](O[C@@H]2OC(C)[C@H](O[C@@H]3C[C@@](C)(O)C(O)C(C)O3)C(N(C)C)C2O)[C@H](CC=O)CC(C)C(=O)/C=C/C(C)=C/[C@@H]1COC1OC(C)C(O)C(OC)[C@@H]1OC (stereo partly specified)"
experimental_result = "0.849 µM (active)"

[[record]]
molecule = "Cc1cccc(C)c1NC(=O)[C@H](C)N"
experimental_result = "inactive"

